Item-by-item account of growth
tested on: PC-3 prostate; assay: NCI-60 one-dose screen, 48 h (100 = growth as untreated, 0 = no growth, -100 = all killed); conditions: 10 µM
Compounds without any hit were thinned out: in the full panel of roughly 83,000, 20% have a hit.

compound	growth / %
COc1ccc([C@H]2C(C(=O)c3ccc(Cl)cc3)C3(N[C@@H]2c2ccccc2)C(=O)Nc2ccc(Br)cc23)cc1 (some centres undefined)	17.9
CCOP(=O)(OCC)O[C@H]1CCC(=O)[C@@H]2[C@H]1[C@H]1C[C@@H]3[C@@]4(C)CCCC(C)(C(=O)OC)[C@@H]4CC[C@@]23C=C1C(C)C (some centres undefined)	23.5
O=C(Nc1nc2ccc([N+](=O)[O-])cc2s1)Nc1ccccc1I	9.44
Cc1noc2c(Cc3ccccc3)nn(CC(=O)N/N=C/c3ccc(Cl)cc3)c(=O)c12	76.4
O=C(CSc1nnc(-c2c[nH]c3ccccc23)n1-c1ccccc1)c1ccc(Cl)cc1	60.4
COc1ccc(CCN2C(=O)/C(=C/c3csc(C#N)n3)SC2=S)cc1	32.8
O=C1Nc2cc(Cl)ccc2/C1=C/c1cccc(OCc2ccccc2)c1	6.84
COc1cc(NC(=O)c2cc(-c3ccc(F)cc3F)ccc2O)cc(OC)c1OC	21.9
O=C(NO)c1ccc(CNC(=O)[C@H]2Cc3c([nH]c4ccccc34)[C@H](c3ccc(Cl)cc3)N2)cc1	21.4
